Target: T1, human RANKL protein (human, UniProt O14788 140-317, limits assumed)
T1 sequence (looked up): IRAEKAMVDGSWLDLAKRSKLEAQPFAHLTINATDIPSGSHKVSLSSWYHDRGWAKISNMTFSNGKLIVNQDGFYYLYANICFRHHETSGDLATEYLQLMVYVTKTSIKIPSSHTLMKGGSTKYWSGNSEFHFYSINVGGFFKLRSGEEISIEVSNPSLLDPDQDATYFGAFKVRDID
Assay: competition ELISA: RANKL (0.5 ug/ml) pre-incubated with the antibody, then binding to coated human RANK (8 ug/ml) detected; blocked partner RANK
Below, each entry is listed alongside its reported IC50.
Field: numeric (µg/mL). Do not append units.

Below are worked cases with known answers.
Prompt: Would you mind telling me what IC50 value was observed for clone 411 rabbit anti-RANKL antibody (antibody, V domains shown) VH: QSVEESGGRLVTPGTPLTLTCTVSGFSLSSGVVSWVRQAPGKGLEWIGYAWSGGPTYYANWAKGRFTISKSSTTVDLKITSPTTADTATYFCARGYNGMDPWGPGTLVTVSS VL: DMTQTPASVEVAVGGTVTIKCQASQNIGSNLAWYQQKPGQPPKLLIYKASTLASGVPSRFRGSGSGTEFTLAISDLECADAATYYCQQGYTTKDVVNPFGGGTEVVVK ?
Response: 0.0771

Prompt: Returns the measured IC50 for the input binder. Input: clone 408 rabbit anti-RANKL antibody (antibody, V domains shown) VH: QSVEESGGRLVTPGTPLTLTCTVSGFSLSTDVVSWVRQAPGKGLEWIGYTWNGGATFYASWAKGRFTFSKTSTTVDLKITSPTTEDTATYFCARGYNGMDPWGPGTLVTVSS VL: DMTQTPASVEAAVGGAVTIKCQASQNIGSNLAWYHQKPGQPPKLLISKASTLASGVPSRFKGSGSGTEFTLAISDLECADAATYYCQQGYTTKNVVNPFGGGTEVVVK
Response: 0.058

Prompt: Any idea what IC50 was measured for clone 420 rabbit anti-RANKL antibody (antibody, V domains shown) VH: QEQLKESGGGLVTPGGILTLTCTASGFSLRSNAMSWVRQAPGKGLEWIGYIYPGGAPHYASWAKGRFTISRNSTTVDLKMTSLTTEDTATYFCARHVSGGGWYLDIWGPGTLVTVSL VL: DMIQTPASVEVGVGGTVTINCQASQNIGSNLAWYQQKPGQPPKFLIYGASTLASGVSSRFKGSGSGTRFTFTISDVECTDAATYYCQQAYSVGNVDNAFGGGTEVVVK ?
Response: 0.0754

Prompt: Field request: IC50 | item: clone 416 rabbit anti-RANKL antibody (antibody, V domains shown) VH: QSVKESGGGLVTPGGTLTLTCTVSGFSLSRNAMSWVRQTPGKGLEWIGYIYSGSSPYYANWAKGRFTISRTSTTVDLKMTSLTTEDTATYFCARHVSDGGWYLDIWGPGTLVAVSL VL: DMIQTPASVEVVVGGTVTFNCQASQNIGSNLAWYQQKPGQPPKLLIYSASTLASGVPSRFKGSGSGTQFTFTISDVECTDAATYYCQQAYSISNVDNAFGGGTEVVVK
Response: 0.138

***
Prompt: Find the recorded IC50 belonging to clone 415 rabbit anti-RANKL antibody (antibody, V domains shown) VH: QSVEESGGRLVTPGGSLTLTCTVSGFSLSNYEMNWVRQAPGKGLEWIGYIDVGSGTWYASWAKGRFTISKTSTTVDLKITSPTTEDTATYFCSRQYNPMDLWGPGTLVTVSS VL: DMTQTPASVEVAVGGTVTIKCQASQNIGSNLAWYQQKPGQRPKLLIYSASTLASGVPSRFKGSGSGTQFTLTISGVQCDDAATYYCQQGYSVGNVNNAFGGGTEVVVK and report it.
Response: 0.0545

Prompt: What measured IC50 goes with clone 447 rabbit anti-RANKL antibody (antibody, V domains shown) VH: QEQLKESGGGLVTPGGILTLTCTASGFSLRSNAMSWVRQAPGKGLEWIGYIYPGGAPHYASWAKGRFTISRNSTTVDLKMTSLTTEDTATYFCARHVSGGGWYLDIWGPGTLVTVSL VL: DMIQTPASVEVGVGGTVTINCQASQNIGSNLAWYQQKPGQPPKFLIYGASTLASGVSSRFKGSGSGTRFTFTISDVECTDAATYYCQQAYSVGNVDNAFGGGTEVVVK ?
Response: 0.0537
